// data source = BindingDB's records for doi:10.7270/Q2QZ28D7

- assayInfo: PubChem AID 1817
reportedEndpoint: IC50 (µM)

INSERT INTO measurements (compound, reportedendpoint, displayunit, readoutvalue) VALUES
  ('CCN1C(=O)C(=CNc2ccc(N3CCOCC3)cc2)C(=O)N(CC)C1=S', 'IC50', 'µM', 200),
  ('O=C1CCCC(=O)C1=NNc1ccc(C(=O)O)cc1 [SMR000370092]', 'IC50', 'µM', 200);

###

The entries below are paired with their reported IC50.
- targetEntity: his6-Siah1 (aa 81-282) (Homo sapiens, UniProt Q8IUQ4)
- Sequence (Q8IUQ4 whole entry, looked up, the tested form may be a part): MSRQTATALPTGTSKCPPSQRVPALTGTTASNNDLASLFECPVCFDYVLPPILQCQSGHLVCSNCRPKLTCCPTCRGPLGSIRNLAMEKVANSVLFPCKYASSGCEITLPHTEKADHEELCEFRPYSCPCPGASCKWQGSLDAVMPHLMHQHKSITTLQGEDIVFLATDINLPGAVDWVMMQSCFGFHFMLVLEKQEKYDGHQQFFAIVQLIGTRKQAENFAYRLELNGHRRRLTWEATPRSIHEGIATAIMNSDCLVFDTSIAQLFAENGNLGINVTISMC
- assayInfo: blockers of Siah-1 interaction with plectin peptide – biochemical, fluorescence polarization, rhodamine-plectin, uHTS, primary screen (AID 1817)
reportedEndpoint: IC50

INSERT INTO measurements (compound, readoutvalue) VALUES
  ('O=C(NN=Cc1ccc(OC(=O)c2cccs2)cc1)c1cccc(F)c1', '> 200 µM'),
  ('CCOC(=O)C(C#N)=c1sc(=C2C=Cc3ccccc3N2CC)c(=O)n1CC', '> 200 µM'),
  ('CC(C)(C)c1cc(-c2cs/c(=N\c3ccccc3)n2Cc2ccc(C(=O)O)cc2)cc(C(C)(C)C)c1O', '> 200 µM'),
  ('COc1cc(NS(=O)(=O)c2ccc(NC(=S)NC(=O)C=Cc3ccc(F)cc3)cc2)ncn1', '> 200 µM'),
  ('COC(=O)c1cc(NC(=O)c2ccccc2)c(=O)oc1CC=Nc1ccc(Oc2ccccc2)cc1', '> 200 µM'),
  ('CN(Cc1c(C(=O)NN=Cc2ccc(F)cc2)nnn1-c1nonc1N)C1CCCCC1', '> 200 µM'),
  ('C=c1c(C#N)c2[nH]c(N)c(C#N)c(C)c-2c1=Cc1ccc(-c2ccccc2C(=O)O)o1', '20.6 µM'),
  ('O=C(NN=Cc1cccc(Br)c1)c1ccc(Br)cc1', '> 200 µM'),
  ('CC[n+]1c(/C=C/N(C)c2ccccc2)sc2ccc(Cl)cc21', '> 200 µM'),
  ('Cc1ccc(S(=O)(=O)N[N-][C+]2C3CC4CC(C3)CC2C4)cc1[N+](=O)[O-]', '> 200 µM'),
  ('Fc1ccc(C=NNC(=S)Nc2cccnc2)cc1F', '> 200 µM'),
  ('CCN(CC)CCOC(=O)c1ccc(N=CC(C#N)c2nc(-c3ccc(OC)c(OC)c3)cs2)cc1 (stereo unspecified)', '12.5 µM'),
  ('O=C(Nc1ccc(Br)cc1)c1ccc(-n2c(O)c3c(c2O)CC=CC3)cc1', '18.6 µM'),
  ('CCN(CC)CCOC(=O)c1ccc(N=CC(C#N)c2nc(-c3cc4ccccc4oc3=O)cs2)cc1 (stereo unspecified)', '11.2 µM'),
  ('CCOC(=O)C1=C(C)N=c2sc(=Cc3ccc(OCC(=O)O)cc3)c(=O)n2C1c1ccc(Cl)cc1 (stereo unspecified)', '> 200 µM'),
  ('CCN(CC)c1ccc(C=c2sc3nnc(-c4ccccc4Cl)n3c2=O)cc1', '> 200 µM'),
  ('CC1(C)Cc2c(sc(N=CN3CCCCCC3)c2C#N)C(C)(C)N1', '> 200 µM'),
  ('COc1ccc(NC2=NC(=O)SC2=Cc2ccc(N(C)C)cc2)cc1', '> 200 µM'),
  ('CCOC(=O)C1(C)CC(=Nc2ccc(O)cc2)C(=O)N1c1ccc(O)cc1 (stereo unspecified)', '> 200 µM'),
  ('C[N+]1(CCNC(=O)CN=O)CCCCC1', '> 200 µM'),
  ('CCN(CC)c1ccc(C=NC(C#N)C(=N)C#N)cc1 (stereo unspecified)', '> 200 µM');
